Consider the following compounds; for each one, report its GI50.
Test system: BT-549
Assay procedure: Antitumor activity against human BT549 cells
Assay type: functional
Numbers only, in µM.

Reference set (2 entries):
compound="OC[C@H]1C[C@](O)(c2ccccc2Cl)[C@@H](c2ccccc2Cl)O1 (relative stereo)" data_value=17
compound="OC[C@H]1C[C@](O)(c2ccc(Cl)cc2)[C@@H](c2ccc(Cl)cc2)O1 (relative stereo)" data_value=16.6

Now for the compound whose GI50 we want.
Provide measured GI50 value, entry: `O=c1[nH]cc(F)c(=O)[nH]1`
100

* * *

Test system: TK-10
Assay procedure: Antitumor activity against human TK10 cells
Type: functional
Measured metric: GI50

Reference set (5 entries):
compound="OC[C@H]1C[C@](O)(c2ccc(F)cc2)[C@@H](c2ccc(F)cc2)O1 (relative stereo)" data_value="> 100 µM"
compound="OC[C@H]1C[C@](O)(c2ccc(Cl)cc2)[C@@H](c2ccc(Cl)cc2)O1 (relative stereo)" data_value="30.2 µM"
compound="CS(=O)(=O)c1ccc([C@H]2O[C@@H](CO)C[C@]2(O)c2ccc(S(C)(=O)=O)cc2)cc1 (relative stereo)" data_value="> 100 µM"
compound="OC[C@H]1C[C@](O)(c2ccccc2Cl)[C@@H](c2ccccc2Cl)O1 (relative stereo)" data_value="20.9 µM"
compound="COc1ccc([C@H]2O[C@@H](CO)C[C@]2(O)c2ccc(OC)cc2)cc1 (relative stereo)" data_value="> 100 µM"

Provide measured GI50 value, entry: `O=c1[nH]cc(F)c(=O)[nH]1`
126 µM

* * *

Consider the following molecules; for each one, report its GI50.
Assay procedure: Antitumor activity against human NCI-H322 cells
Type: functional
One number for each entry, in µM.

Batch: GI50 for all items listed.
1. OC[C@H]1C[C@](O)(c2ccccc2Cl)[C@@H](c2ccccc2Cl)O1 (relative stereo)
2. OC[C@H]1C[C@](O)(c2ccc(Cl)cc2)[C@@H](c2ccc(Cl)cc2)O1 (relative stereo)
3. O=c1[nH]cc(F)c(=O)[nH]1

1: 32.4; 2: 35.5; 3: 20

* * *

Tested on: SR
Assay procedure: Antitumor activity against human SR cells
Type: functional
Measured metric: GI50 (µM)
Give bare numbers, in µM.

compound="O=c1[nH]cc(F)c(=O)[nH]1 [FLUOROURACIL]" data_value=3.98
compound="OC[C@H]1C[C@](O)(c2ccccc2Cl)[C@@H](c2ccccc2Cl)O1 (relative stereo)" data_value=17
compound="OC[C@H]1C[C@](O)(c2ccc(Cl)cc2)[C@@H](c2ccc(Cl)cc2)O1 (relative stereo)" data_value=20.4

Provide measured GI50 value, entry: COc1ccc([C@H]2O[C@@H](CO)C[C@]2(O)c2ccc(OC)cc2)cc1 (relative stereo)
50.1

* * *

Tested on: A498
Assay procedure: Antitumor activity against human A498 cells
Type: functional
Consider the following compounds; for each one, report its GI50.
Numbers only, in µM.

Reference set (2 entries):
compound="OC[C@H]1C[C@](O)(c2ccc(Cl)cc2)[C@@H](c2ccc(Cl)cc2)O1 (relative stereo)" measured_metric=GI50 data_value=24.5
compound="O=c1[nH]cc(F)c(=O)[nH]1 [FLUOROURACIL]" measured_metric=GI50 data_value=10

Now for the compound whose GI50 we want.
Provide measured GI50 value, entry: OC[C@H]1C[C@](O)(c2ccccc2Cl)[C@@H](c2ccccc2Cl)O1 (relative stereo)
22.9

* * *

Tested on: NCI-H226
Assay procedure: Antitumor activity against human NCI-H226 cells
Assay type: functional
Measured metric: GI50 (µM)
Numbers only, in µM.

compound="OC[C@H]1C[C@](O)(c2ccccc2Cl)[C@@H](c2ccccc2Cl)O1 (relative stereo)" data_value=26.3
compound="OC[C@H]1C[C@](O)(c2ccc(Cl)cc2)[C@@H](c2ccc(Cl)cc2)O1 (relative stereo)" data_value=26.3

Provide measured GI50 value, entry: `O=c1[nH]cc(F)c(=O)[nH]1`
251

* * *

Tested on: SNB-19
Assay procedure: Antitumor activity against human SNB19 cells
Assay type: functional
Measured metric: GI50 (µM)
Give bare numbers, in µM.

Reference set (2 entries):
compound="OC[C@H]1C[C@](O)(c2ccc(Cl)cc2)[C@@H](c2ccc(Cl)cc2)O1 (relative stereo)" measured_metric=GI50 data_value=38
compound=O=c1[nH]cc(F)c(=O)[nH]1 measured_metric=GI50 data_value=126

Now for the compound whose GI50 we want.
Under SNB-19: report GI50 of OC[C@H]1C[C@](O)(c2ccccc2Cl)[C@@H](c2ccccc2Cl)O1 (relative stereo) .
31.6

* * *

Tested on: DU-145
Assay procedure: Antitumor activity against human DU145 cells
Assay type: functional
Consider the following compounds; for each one, report its GI50.
Give bare numbers, in µM.

compound="OC[C@H]1C[C@](O)(c2ccc(Cl)cc2)[C@@H](c2ccc(Cl)cc2)O1 (relative stereo)" data_value=21.9
compound=O=c1[nH]cc(F)c(=O)[nH]1 data_value=10

Now for the compound whose GI50 we want.
Provide measured GI50 value, entry: OC[C@H]1C[C@](O)(c2ccccc2Cl)[C@@H](c2ccccc2Cl)O1 (relative stereo)
26.9

* * *

Consider the following compounds; for each one, report its GI50.
System: MCF7
Assay procedure: Antitumor activity against human MCF7 cells
Assay type: functional
Numbers only, in µM.

Reference set (2 entries):
compound=O=c1[nH]cc(F)c(=O)[nH]1 data_value=1.58
compound="OC[C@H]1C[C@](O)(c2ccc(Cl)cc2)[C@@H](c2ccc(Cl)cc2)O1 (relative stereo)" data_value=30.2

Under MCF7: report GI50 of OC[C@H]1C[C@](O)(c2ccccc2Cl)[C@@H](c2ccccc2Cl)O1 (relative stereo) .
26.9

* * *

Test system: RXF 393
Assay procedure: Antitumor activity against human RXF393 cells
Assay type: functional
Consider the following molecules; for each one, report its GI50.
Answers are plain numbers, in µM.

Reference set (4 entries):
molecule="OC[C@H]1C[C@](O)(c2ccccc2Cl)[C@@H](c2ccccc2Cl)O1 (relative stereo)" measured_metric=GI50 data_value=18.6
molecule=O=c1[nH]cc(F)c(=O)[nH]1 measured_metric=GI50 data_value=50.1
molecule="OC[C@H]1C[C@](O)(c2ccc(F)cc2)[C@@H](c2ccc(F)cc2)O1 (relative stereo)" measured_metric=GI50 data_value=52.5
molecule="OC[C@H]1C[C@](O)(c2ccc(Cl)cc2)[C@@H](c2ccc(Cl)cc2)O1 (relative stereo)" measured_metric=GI50 data_value=20.9

Now for the molecule whose GI50 we want.
Under RXF 393: report GI50 of COc1ccc([C@H]2O[C@@H](CO)C[C@]2(O)c2ccc(OC)cc2)cc1 (relative stereo) .
28.2

* * *

System: U-251
Assay procedure: Antitumor activity against human U251 cells
Type: functional
Measured metric: GI50

Reference set (3 entries):
molecule="COc1ccc([C@H]2O[C@@H](CO)C[C@]2(O)c2ccc(OC)cc2)cc1 (relative stereo)" data_value="> 100 µM"
molecule="O=c1[nH]cc(F)c(=O)[nH]1 [FLUOROURACIL]" data_value="39.8 µM"
molecule="OC[C@H]1C[C@](O)(c2ccccc2Cl)[C@@H](c2ccccc2Cl)O1 (relative stereo)" data_value="28.2 µM"

Batch: GI50 for all items listed.
1. CS(=O)(=O)c1ccc([C@H]2O[C@@H](CO)C[C@]2(O)c2ccc(S(C)(=O)=O)cc2)cc1 (relative stereo)
2. OC[C@H]1C[C@](O)(c2ccc(F)cc2)[C@@H](c2ccc(F)cc2)O1 (relative stereo)
3. OC[C@H]1C[C@](O)(c2ccc(Cl)cc2)[C@@H](c2ccc(Cl)cc2)O1 (relative stereo)

> 100 µM
> 100 µM
24.5 µM

* * *

Consider the following compounds; for each one, report its GI50.
System: UO-31
Assay procedure: Antitumor activity against human UO31 cells
Assay type: functional

compound="OC[C@H]1C[C@](O)(c2ccc(F)cc2)[C@@H](c2ccc(F)cc2)O1 (relative stereo)" experimental_target=UO-31 measured_metric=GI50 data_value="> 100 µM"
compound="CS(=O)(=O)c1ccc([C@H]2O[C@@H](CO)C[C@]2(O)c2ccc(S(C)(=O)=O)cc2)cc1 (relative stereo)" experimental_target=UO-31 measured_metric=GI50 data_value="> 100 µM"

Batch: GI50 for all items listed.
1. OC[C@H]1C[C@](O)(c2ccccc2Cl)[C@@H](c2ccccc2Cl)O1 (relative stereo)
2. COc1ccc([C@H]2O[C@@H](CO)C[C@]2(O)c2ccc(OC)cc2)cc1 (relative stereo)
3. O=c1[nH]cc(F)c(=O)[nH]1
4. OC[C@H]1C[C@](O)(c2ccc(Cl)cc2)[C@@H](c2ccc(Cl)cc2)O1 (relative stereo)

1: 22.9 µM; 2: > 100 µM; 3: 5.01 µM; 4: 19.5 µM

* * *

Tested on: NCI-H23
Assay procedure: Antitumor activity against human NCI-H23 cells
Type: functional
Measured metric: GI50 (µM)
One number for each entry, in µM.

Reference set (2 entries):
compound="OC[C@H]1C[C@](O)(c2ccc(Cl)cc2)[C@@H](c2ccc(Cl)cc2)O1 (relative stereo)" reading_unit=µM data_value=24.5
compound="OC[C@H]1C[C@](O)(c2ccccc2Cl)[C@@H](c2ccccc2Cl)O1 (relative stereo)" reading_unit=µM data_value=25.7

Provide measured GI50 value, entry: `O=c1[nH]cc(F)c(=O)[nH]1`
12.6
